tested on: DIPGX7 (H3.3 K27M diffuse intrinsic pontine glioma line); assay: growth inhibition (% activity, log2 RLU normalised to DMSO / staurosporine); higher = more growth inhibition; conditions: 33 µM
property: growth inhibition (%)
Give bare numbers, in %.

Solved entries:
>  <compound>
CC(C)NCC(O)COc1cccc2ccccc12 (stereo not drawn)

>  <growth inhibition / %>
-0.508

$$$$
>  <compound>
CN(C)C/C=C/C(=O)Nc1cc2c(Nc3ccc(F)c(Cl)c3)ncnc2cc1O[C@H]1CCOC1

>  <growth inhibition / %>
29.6

$$$$
>  <compound>
CCCCc1oc2ccccc2c1C(=O)c1cc(I)c(OCCN(CC)CC)c(I)c1

>  <growth inhibition / %>
16.3

$$$$
>  <compound>
N#CC[C@H](C1CCCC1)n1cc(-c2ncnc3[nH]ccc23)cn1

>  <growth inhibition / %>
0.591

$$$$
>  <compound>
CCCCc1oc2ccc(NS(C)(=O)=O)cc2c1C(=O)c1ccc(OCCCN(CCCC)CCCC)cc1

>  <growth inhibition / %>
57

$$$$
>  <compound>
O=C1CCC(N2C(=O)c3ccccc3C2=O)C(=O)N1 (stereo not drawn)

>  <growth inhibition / %>
-0.846

$$$$
>  <compound>
c1ccc2c(CC3=NCCN3)cccc2c1

>  <growth inhibition / %>
1.78

$$$$

Continue with the next compound.
Task: Quote growth inhibition reported for `CCCCCCCCCC(=O)N[C@@H](Cc1c[nH]c2ccccc12)C(=O)N[C@@H](CC(N)=O)C(=O)N[C@@H](CC(=O)O)C(=O)N[C@@H]1C(=O)NCC(=O)N[C@@H](CCCN)C(=O)N[C@@H](CC(=O)O)C(=O)N[C@H](C)C(=O)N[C@@H](CC(=O)O)C(=O)NCC(=O)N[C@H](CO)C(=O)N[C@@H]([C@H](C)CC(=O)O)C(=O)N[C@@H](CC(=O)c2ccccc2N)C(=O)O[C@@H]1C` please.
Result: -0.801

----------
Kindly supply the reported growth inhibition values for the records listed here.
system: HNSC; experiment: growth inhibition (% activity, log2 RLU normalised to DMSO / staurosporine); higher = more growth inhibition; settings: 33 µM
Answers are plain numbers, in %.

>  <molecule>
CC(C)OC(=O)C(C)(C)Oc1ccc(C(=O)c2ccc(Cl)cc2)cc1

>  <test.system>
HNSC

>  <unit.tag>
%

>  <growth inhibition>
54.6

$$$$
>  <molecule>
COc1cc(C(=O)NS(=O)(=O)c2ccccc2C)ccc1Cc1cn(C)c2ccc(NC(=O)OC3CCCC3)cc12

>  <test.system>
HNSC

>  <unit.tag>
%

>  <growth inhibition>
-0.546

$$$$

Continue with the next molecule.
Task: Quote growth inhibition reported for CC1CC(OC(=O)C(O)c2ccccc2)CC(C)(C)C1 (stereo not drawn) please.
Result: 10.7

----------
Kindly supply the reported growth inhibition values for the records listed here.
tested on: SUDIPGIV (diffuse intrinsic pontine glioma line); assay: growth inhibition (% activity, log2 RLU normalised to DMSO / staurosporine); higher = more growth inhibition; conditions: 33 µM
Give bare numbers, in %.

>  <compound>
CCCCc1nc(Cl)c(CO)n1Cc1ccc(-c2ccccc2-c2nnn[nH]2)cc1

>  <unit.tag>
%

>  <growth inhibition>
0.0281

$$$$
>  <compound>
NS(=O)(=O)c1cc2c(cc1Cl)NC(C(Cl)Cl)NS2(=O)=O (centres undefined)

>  <unit.tag>
%

>  <growth inhibition>
-3.21

$$$$

Please report growth inhibition for every entry that follows.
1. CCCCCCCCCCOc1cc2c(O)c(C(=O)OCC)cnc2cc1OCC
2. C[C@]12CCC(=O)C=C1[C@@H]1C[C@@H]1[C@H]1[C@@H]3[C@@H]4C[C@@H]4[C@@]4(CCC(=O)O4)[C@@]3(C)CC[C@@H]12
3. CCOCC(O)COc1ccc(NC(=O)CC[S+](C)C)cc1 (centres undefined)
4. Cc1cc(=O)[nH]c(=S)[nH]1

Result:
[1.52, 0.914, -1.12, 2.24]

Please report growth inhibition for every entry that follows.
1. C[C@@H]1C[C@H]2[C@@H]3C[C@H](F)C4=CC(=O)C=C[C@]4(C)[C@@]3(F)[C@@H](O)C[C@]2(C)[C@@]1(O)C(=O)CO
2. CCCCNc1cc(C(=O)O)cc(S(N)(=O)=O)c1Oc1ccccc1
3. COC(=O)C1=C(C#N)NC(C)=C(C(=O)OC(C)C)C1c1cccc([N+](=O)[O-])c1 (centres undefined)

Result:
[-0.633, -5.34, -1.37]
